# Tested on: Mv-1-Lu mink lung epithelial cells
# protocol.notes: Inhibition of DNA synthesis ([3H]thymidine incorporation) of Mv-1-Lu mink lung epithelial cells
# Assay type: cell-based
# condition.parameters: 3H-thymidine incorporation, MV-1-Lu cells; concentration 1 nM; cytomodulin at same concentration
Record form. Attribute: Inhib by new peptide/Inhib by cytomodulin. Fill in for each entry.
Answers are plain numbers.

L-I-A-G-G-E (LIAGGE) [SEQ ID NO: 13]: 1.10
L-I-A-Q-A-K (LIAQAK) [SEQ ID NO: 12]: 0.90
L-I-A-E-A-A (LIAEAA) [SEQ ID NO: 11]: 1.16
L-I-A-D-A-K (LIADAK) [SEQ ID NO: 9]: 0.45
L-I-A-G-E-G (LIAGEG) [SEQ ID NO: 14]: 0.66

Under Mv-1-Lu mink lung epithelial cells: Inhib by new peptide/Inhib by cytomodulin value of L-I-A-N-A-K (LIANAK) [SEQ ID NO: 10] ?
1.70

* * *

# Tested on: Mv-1-Lu mink lung epithelial cells
# protocol.notes: Inhibition of DNA synthesis ([3H]thymidine incorporation) of Mv-1-Lu mink lung epithelial cells
# Type: cell-based
# condition.parameters: 3H-thymidine incorporation, MV-1-Lu cells; concentration 10 nM; cytomodulin at same concentration
reported.property: Inhib by new peptide/Inhib by cytomodulin

Some entries whose results are on file:
L-I-A-D-A-K (LIADAK) [SEQ ID NO: 9]: 0.87
L-I-A-G-E-G (LIAGEG) [SEQ ID NO: 14]: 0.85
L-I-A-N-A-K (LIANAK) [SEQ ID NO: 10]: 2.00
L-I-A-K-G-K (LIAKGK) [SEQ ID NO: 16]: 0.65
L-I-A-Q-A-K (LIAQAK) [SEQ ID NO: 12]: 1.10
A-N-V-A-E-K (ANVAEK) [SEQ ID NO: 15]: 0.80

# map each substance to its Inhib by new peptide/Inhib by cytomodulin
1. L-I-A-G-G-E (LIAGGE) [SEQ ID NO: 13]
2. L-I-A-E-A-A (LIAEAA) [SEQ ID NO: 11]

[1.33, 1.00]

Values compiled from patent US20060293227A1.
